molecular target: MAO-A (Homo sapiens, UniProt P21397); assay: Inhibition of recombinant human MAOA at 10 uM using kynuramine as substrate preincubated for 30 mins followed by substrate addition and measured after 30 mins by fluorescence assay relative to control; details: probe kynuramine, time 60 min
Sequence (P21397 whole entry): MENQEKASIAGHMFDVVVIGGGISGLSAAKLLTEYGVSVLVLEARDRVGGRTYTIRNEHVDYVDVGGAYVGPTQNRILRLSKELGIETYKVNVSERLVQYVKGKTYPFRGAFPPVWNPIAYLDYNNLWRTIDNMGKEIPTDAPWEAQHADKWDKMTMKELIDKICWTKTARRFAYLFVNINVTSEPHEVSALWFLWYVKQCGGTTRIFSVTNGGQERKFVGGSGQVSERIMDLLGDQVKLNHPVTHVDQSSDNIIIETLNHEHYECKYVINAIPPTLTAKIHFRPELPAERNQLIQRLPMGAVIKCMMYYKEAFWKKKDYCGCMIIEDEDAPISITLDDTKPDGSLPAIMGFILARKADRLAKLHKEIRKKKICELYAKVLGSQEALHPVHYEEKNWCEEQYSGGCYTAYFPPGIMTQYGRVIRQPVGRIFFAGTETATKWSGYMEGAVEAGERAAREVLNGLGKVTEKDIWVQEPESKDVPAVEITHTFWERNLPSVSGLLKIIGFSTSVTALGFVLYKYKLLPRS
Field: inhibition at 0.5 h, 10 µM. Provide a value for each of the compounds that follow.

A selection of reference data follows.
INSERT INTO results (compound, measure_name, result) VALUES
  ('COc1cc2c(cc1OC)/C(=C/c1ccc(O)c(N3CCCCC3)c1)OC2=O', 'inhibition at 0.5 h, 10 µM', '< 5%'),
  ('CCN(CC)c1c(O)cccc1/C=C1/OC(=O)c2cc(OC)c(OC)cc21', 'inhibition at 0.5 h, 10 µM', '< 5%'),
  ('CCN(CC)c1cc(/C=C2/OC(=O)c3cc(OC)c(OC)cc32)ccc1O', 'inhibition at 0.5 h, 10 µM', '< 5%');

Here are 6 compounds. What values of inhibition at 0.5 h, 10 µM were reported for them?
1. COc1cc2c(cc1OC)/C(=C/c1ccc(N3CCOCC3)c(O)c1)OC2=O
2. CCN(CC)c1c(O)cccc1CC1OC(=O)c2cc(OC)c(OC)cc21 (centres undefined)
3. COc1cc2c(cc1OC)/C(=C\c1ccc(N3CCCCC3)c(O)c1)OC2=O
4. CCN(CC)c1c(O)cccc1/C=C1\OC(=O)c2cc(OC)c(OC)cc21
5. COc1cc2c(cc1OC)/C(=C\c1ccc(O)c(N3CCCCC3)c1)OC2=O
6. COc1cc2c(cc1OC)C(Cc1cccc(O)c1N1CCN(C)CC1)OC2=O (centres undefined)

1. 5.3%
2. < 5%
3. 49.1%
4. < 5%
5. 5.67%
6. < 5%

Here are 5 compounds. What values of inhibition at 0.5 h, 10 µM were reported for them?
1. COc1cc2c(cc1OC)/C(=C\c1cccc(O)c1N1CCOCC1)OC2=O
2. COc1cc2c(cc1OC)/C(=C\c1cccc(O)c1N1CCN(C)CC1)OC2=O
3. COc1cc2c(cc1OC)/C(=C/c1cccc(O)c1N1CCCCC1)OC2=O
4. CCN(CC)c1ccc(/C=C2/OC(=O)c3cc(OC)c(OC)cc32)cc1O
5. CCN(CC)c1ccc(CC2OC(=O)c3cc(OC)c(OC)cc32)cc1O (centres undefined)

< 5%
10%
< 5%
48%
< 5%
